Where these numbers come from: ChEMBL document CHEMBL1147764

system: HCT-116; assay: Cytotoxicity against HCT116 human colon cancer cell line; format: functional, cell-based
Below, each entry is listed with its recorded pIC50.
Quick note: pIC50 values are minus log10 of concentrations in mol/L.

Answered cases to consult:
>  <Smiles entry>
CCC(=C/[C@H](C)C/C=C/C(C)=C/[C@@H](C)C(=O)[C@@H](C)[C@H](O)[C@@H](C)CC)/C=C/[C@@H]1OC(=O)C=C[C@H]1C

>  <pIC50>
7.52

$$$$
>  <Smiles entry>
CCC(=C/[C@H](C)C/C=C/C(C)=C/[C@@H](C)C(=O)[C@@H](C)[C@H](O)[C@@H](C)CC)/C=C/[C@H]1OC(=O)C=C[C@H]1C

>  <pIC50>
9.70

$$$$

Input: Recorded pIC50 of CCC(=C/[C@H](C)C/C=C/C(C)=C/[C@@H](C)C(=O)[C@@H](C)[C@H](O)[C@@H](C)CC)/C=C/[C@@H]1OC(=O)C=C[C@@H]1C , please.
Output: 8.52

Input: Recorded pIC50 of CCC(=C/[C@H](C)C/C=C/C(C)=C/[C@@H](C)C(=O)[C@@H](C)[C@H](O)[C@@H](C)CC)/C=C/[C@H]1CC=CC(=O)O1 , please.
Output: 10.52

Input: Recorded pIC50 of CCC(=C/[C@H](C)C/C=C/C(C)=C/[C@@H](C)C(=O)[C@@H](C)[C@H](O)[C@@H](C)CC)/C=C/[C@H]1OC(=O)C=C[C@@H]1C , please.
Output: 8.70
